# assayText: Cytotoxicity evaluation
# settings: human, Cytotoxicity (%), extended treatment in the absence of S9 mix; 0.030 mmol/L
measuredQuantity: cytotoxicity at 0.03 mmol/L (%)

[[record]]
smilesrepr = "CCCCC/C=C\\C/C=C\\CCCCCCCCP(=O)(OCC)OCC"
measuredquantity = "cytotoxicity at 0.03 mmol/L"
reported = 72.8


* * *

# assayText: Cytotoxicity evaluation
# settings: human, Cytotoxicity (%), short treatment in absence of S9 mix; 0.100 mmol/L
measuredQuantity: cytotoxicity at 0.1 mmol/L (%)

[[record]]
smilesrepr = "CCCCC/C=C\\C/C=C\\CCCCCCCCP(=O)(OCC)OCC"
reported = 56.2


* * *

# assayText: Cytotoxicity evaluation
# settings: human, Cytotoxicity (%), extended treatment in the absence of S9 mix; 0.0065 mmol/L
measuredQuantity: cytotoxicity at 0.0065 mmol/L (%)

[[record]]
smilesrepr = "CCCCC/C=C\\C/C=C\\CCCCCCCCP(=O)(OCC)OCC"
unitssymbol = "%"
reported = 24.9


These entries and their values trace back to paper PMC9871744.
